biological target: Transient receptor potential cation channel subfamily M member 8 (Rattus norvegicus) (UniProt Q8R455); assay: Activation of rat TRPM8 expressed in HEK293 cells assessed as stimulation of intracellular Ca2+ levels relative to 4 uM ionomycin; assay type: cell-based
Sequence (Q8R455 whole entry, looked up): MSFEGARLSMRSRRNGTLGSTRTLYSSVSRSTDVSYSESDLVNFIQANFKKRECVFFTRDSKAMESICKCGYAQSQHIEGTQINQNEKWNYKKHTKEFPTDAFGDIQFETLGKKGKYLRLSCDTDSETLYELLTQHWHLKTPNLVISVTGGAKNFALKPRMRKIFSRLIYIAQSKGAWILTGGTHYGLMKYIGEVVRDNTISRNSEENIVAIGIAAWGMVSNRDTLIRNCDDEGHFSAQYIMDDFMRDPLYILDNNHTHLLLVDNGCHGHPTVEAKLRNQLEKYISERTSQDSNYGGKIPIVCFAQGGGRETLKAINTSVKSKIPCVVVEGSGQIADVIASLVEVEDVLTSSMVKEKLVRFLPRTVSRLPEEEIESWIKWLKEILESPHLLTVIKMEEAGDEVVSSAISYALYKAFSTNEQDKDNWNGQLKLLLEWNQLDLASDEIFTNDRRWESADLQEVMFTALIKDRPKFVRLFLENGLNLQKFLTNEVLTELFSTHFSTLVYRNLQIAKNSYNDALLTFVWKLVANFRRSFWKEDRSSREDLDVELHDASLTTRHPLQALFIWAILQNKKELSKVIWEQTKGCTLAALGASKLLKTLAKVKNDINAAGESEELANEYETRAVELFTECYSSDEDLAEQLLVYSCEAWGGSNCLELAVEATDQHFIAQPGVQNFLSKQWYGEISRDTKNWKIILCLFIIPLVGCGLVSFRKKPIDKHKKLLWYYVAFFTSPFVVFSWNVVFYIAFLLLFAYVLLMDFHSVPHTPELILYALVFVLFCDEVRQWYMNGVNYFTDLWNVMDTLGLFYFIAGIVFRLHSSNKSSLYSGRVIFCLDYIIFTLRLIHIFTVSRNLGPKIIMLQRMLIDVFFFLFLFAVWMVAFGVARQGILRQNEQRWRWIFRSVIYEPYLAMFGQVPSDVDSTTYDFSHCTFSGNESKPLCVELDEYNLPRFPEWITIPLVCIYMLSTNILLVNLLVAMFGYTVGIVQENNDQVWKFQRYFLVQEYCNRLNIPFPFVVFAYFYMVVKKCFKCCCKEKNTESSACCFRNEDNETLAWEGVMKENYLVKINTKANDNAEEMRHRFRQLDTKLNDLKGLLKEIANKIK
experimental_readout: Efficacy (%)

{"columns": ["structure_notation", "experimental_readout", "value_units", "meas_value"],
 "data": [
  ["Cc1ccc(C(C)C)c(C(=O)Nc2ccc(C(C)(C)C)cc2)c1", "Efficacy", "%", 40],
  ["COc1ccc(NC(=O)Oc2cc(C)ccc2C(C)C)cc1", "Efficacy", "%", 30.3],
  ["Cc1ccc(C(C)C)c(N)c1", "Efficacy", "%", 33.8]
]}

P: Cc1ccc(C(C)C)c(O)c1
Q: Cc1ccc(C(C)C)c(C(=O)Nc2ccc(C(F)(F)F)cc2)c1
R: COc1ccc(C(=O)Nc2cc(C)ccc2C(C)C)cc1
I would appreciate it if you could sort these 3 compounds by Efficacy, starting from the smallest number. Sort and list the labels as requested.
Q, P, R

###

molecular target: Transient receptor potential cation channel subfamily A member 1 (Rattus norvegicus); experiment: Activation of rat TRPA1 expressed in HEK293 cells assessed as stimulation of intracellular Ca2+ levels relative to 100 uM allyl isothiocyanate; type: cell-based
experimental_readout: Efficacy (%)

{"columns": ["structure_notation", "Efficacy [%]"],
 "data": [
  ["Cc1ccc(C(C)C)c(NC(=O)Nc2ccc(-c3ccccc3)cc2)c1", 224],
  ["Cc1ccc(C(C)C)c(C(=O)NCCc2c[nH]c3ccc(OCc4ccccc4)cc23)c1", 241]
]}

1: Cc1ccc(C(C)C)c(NC(=O)Oc2ccc(C(C)(C)C)cc2)c1
2: Cc1ccc(C(C)C)c(OC(=O)c2ccc(-c3ccccc3)cc2)c1
Please compare: 1 and 2 . Report which one has the smaller Efficacy value. Answer by stating the label of the chosen item.
1
(1: 132%, 2: 204%)

###

molecular target: UniProtKB Q6RI86; test: Activation of rat TRPA1 expressed in HEK293 cells assessed as stimulation of intracellular Ca2+ levels relative to 100 uM allyl isothiocyanate; format: cell-based
Sequence (Q6RI86 whole entry): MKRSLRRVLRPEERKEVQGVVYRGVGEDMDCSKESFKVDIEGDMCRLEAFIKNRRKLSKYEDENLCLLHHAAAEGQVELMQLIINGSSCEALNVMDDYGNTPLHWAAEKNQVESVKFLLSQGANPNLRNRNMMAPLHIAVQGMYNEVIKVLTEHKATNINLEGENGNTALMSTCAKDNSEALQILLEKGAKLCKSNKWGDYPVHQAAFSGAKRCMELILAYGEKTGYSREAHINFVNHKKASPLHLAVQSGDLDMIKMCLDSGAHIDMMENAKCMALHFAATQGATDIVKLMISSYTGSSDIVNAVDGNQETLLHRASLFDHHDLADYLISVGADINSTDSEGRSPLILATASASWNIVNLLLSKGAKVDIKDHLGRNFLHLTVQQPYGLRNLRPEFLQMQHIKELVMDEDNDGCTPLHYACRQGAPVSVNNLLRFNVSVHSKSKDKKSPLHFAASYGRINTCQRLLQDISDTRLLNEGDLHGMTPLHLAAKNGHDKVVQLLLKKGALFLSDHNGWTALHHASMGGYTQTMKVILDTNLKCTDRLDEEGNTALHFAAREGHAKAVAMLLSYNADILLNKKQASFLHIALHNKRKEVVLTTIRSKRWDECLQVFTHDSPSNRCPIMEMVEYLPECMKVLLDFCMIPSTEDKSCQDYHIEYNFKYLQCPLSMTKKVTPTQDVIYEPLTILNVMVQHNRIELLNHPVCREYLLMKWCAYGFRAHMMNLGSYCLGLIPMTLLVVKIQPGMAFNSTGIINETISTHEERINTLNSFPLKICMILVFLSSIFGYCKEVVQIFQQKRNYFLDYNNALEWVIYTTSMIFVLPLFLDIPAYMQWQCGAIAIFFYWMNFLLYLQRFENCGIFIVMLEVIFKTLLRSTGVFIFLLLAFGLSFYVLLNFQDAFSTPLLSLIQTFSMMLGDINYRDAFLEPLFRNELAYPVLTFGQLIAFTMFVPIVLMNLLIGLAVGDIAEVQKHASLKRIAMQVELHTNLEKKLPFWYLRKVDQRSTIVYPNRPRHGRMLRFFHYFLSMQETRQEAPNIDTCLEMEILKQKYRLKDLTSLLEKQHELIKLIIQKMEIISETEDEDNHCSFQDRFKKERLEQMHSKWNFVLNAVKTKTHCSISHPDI
experimental_readout: Efficacy (%)

1: Cc1ccc(C(C)C)c(NC(=O)c2ccc(C(C)(C)C)cc2)c1
2: Cc1ccc(C(C)C)c(O)c1
Which record would sort first by descending Efficacy, 1 or 2 ? Please identify the chosen entry by its label.
1
(1: 204%, 2: 119%)

###

biological target: Transient receptor potential cation channel subfamily M member 8 (Rattus norvegicus, UniProt Q8R455); test: Activation of rat TRPM8 expressed in HEK293 cells assessed as stimulation of intracellular Ca2+ levels
Sequence (Q8R455 whole entry): as the sequence (Q8R455 whole entry, looked up) above
pEC50: −log10 of the molar value.
experimental_readout: pEC50

Here are 5 compounds together with their reported answers.
{"columns": ["structure_notation", "experimental_readout", "meas_value"],
 "data": [
  ["Cc1ccc(C(C)C)c(N)c1", "pEC50", 4.36],
  ["COc1ccc(NC(=O)Oc2cc(C)ccc2C(C)C)cc1", "pEC50", 5.29],
  ["Cc1ccc(C(C)C)c(C(=O)Nc2ccc(Cl)cc2)c1", "pEC50", 6.07],
  ["Cc1ccc(C(C)C)c(NC(=O)c2ccc(C(C)(C)C)cc2)c1", "pEC50", 6.36],
  ["Cc1ccc(C(C)C)c(C(=O)Nc2ccc(C(F)(F)F)cc2)c1", "pEC50", 4.34]
]}

a: Cc1ccc(C(C)C)c(O)c1
b: Cc1ccc(C(C)C)c(C(=O)Nc2ccc(C(C)(C)C)cc2)c1
c: COc1ccc(C(=O)Nc2cc(C)ccc2C(C)C)cc1
d: Cc1ccc(C(C)C)c(C(=O)NCCc2ccccc2)c1
// ranking: key=pEC50, reverse=True Please express your ranking as an ordered list of the labels.
d, b, c, a

From: ChEMBL document CHEMBL2086321
